Overview of recorded EC50 for various compounds
Target: wild-type Choristoneura fumiferana EcR (D, E and F domains) (Choristoneura fumiferana)
Format: cell-based
Conditions: S; WT-CtEcR, 3T3 Cells
# number only, unit µM dropped from output

-- ask Form field: reported EC50 of `CCC[C@@H](C1CCCCC1)N(NC(=O)c1cccc(OC)c1CC)C(=O)c1cc(C)cc(C)c1`
-- reply 0.159

-- ask And then `CCC[C@@H](C1CCCCC1)N(NC(=O)c1ccccc1)C(=O)c1cc(C)cc(C)c1` , what is it?
-- reply 2.75

New cases:
-- ask Form field: reported EC50 of `CCC[C@H](N(NC(=O)c1ccc(C)cc1)C(=O)c1cc(C)cc(C)c1)C(C)(C)C`
-- reply 2.17

-- ask And then `CCC[C@H](N(NC(=O)c1ccc(CC)cc1)C(=O)c1cc(C)cc(C)c1)C(C)(C)C` , what is it?
-- reply 0.418
